biological target: HIV-1 integrase (Human immunodeficiency virus type 1 group M subtype B); assay: biochemical; format: biochemical; settings: Table 7; 3′-processing; read-out: IC50 (μM) 3′-P
Entries and their measured IC50 follow.

Illustrative cases are given below, each with its answer.
| molecule | IC50 |
| --- | --- |
| Nc1c(C(=O)NCc2ccc(F)cc2F)c(=O)n(O)c2ncc(CCc3ccccc3)cc12 [XZ430] | 48 µM |
| Nc1c(C(=O)NCc2ccc(F)cc2F)c(=O)n(O)c2ncc(CCCCc3ccccc3)cc12 [XZ429] | 42 µM |
| O=C(NCc1ccc(F)cc1F)c1c(NCCO)c2cc(CCCCCO)cnc2n(O)c1=O [XZ437] | 4 µM |
| Nc1c(C(=O)NCc2ccc(F)cc2F)c(=O)n(O)c2ncc(-c3ccccc3)cc12 [XZ420] | 17.9 µM |
| Nc1c(C(=O)NCc2ccc(F)cc2F)c(=O)n(O)c2ncc(CCCO)cc12 [XZ423] | 4.3 µM |
| O=C(NCc1ccc(F)cc1F)c1c(O)c2cc(CCCCCO)cnc2n(O)c1=O [XZ421] | 14.3 µM |
| Nc1c(C(=O)NCc2ccc(F)cc2F)c(=O)n(O)c2ncc(CCCCCCO)cc12 [XZ426] | 19 µM |
| Nc1c(C(=O)NCc2ccc(F)cc2F)c(=O)n(O)c2ncc(Br)cc12 [XZ418] | 7.9 µM |
| Nc1c(C(=O)NCc2ccc(F)cc2F)c(=O)n(O)c2ncc(CCCCCCOC(=O)c3ccccc3)cc12 [XZ427] | 143 µM |

Which IC50 reading was recorded for the molecule Nc1c(C(=O)NCc2ccc(F)cc2F)c(=O)n(O)c2ncc(CCCOCCO)cc12 [XZ432] ?
1.5 µM

---

Entries and their measured IC50 follow.
target: HIV-1 integrase (Human immunodeficiency virus type 1 group M subtype B); test: biochemical; type: biochemical; conditions: Table 4; 3′-processing; read-out: IC50 (3^+-Processing)

Illustrative cases are given below, each with its answer.
| compound | IC50 |
| --- | --- |
| Nc1ccc(-c2ccc(Nc3c(C(=O)NCc4ccc(F)cc4F)c(=O)n(O)c4ncccc34)cc2)cc1 [XZ387] | 80 µM |
| O=C(NCc1ccc(F)cc1F)c1c(O)c2ccc(N3CCCCC3)nc2n(O)c1=O [XZ409] | > 333 µM |
| Nc1c(C(=O)NCc2ccc(F)cc2F)c(=O)n(O)c2nc(N3CCCCC3)ccc12 [XZ410] | > 333 µM |

Which IC50 reading was recorded for the compound Nc1c(C(=O)NCc2ccc(F)cc2F)c(=O)n(O)c2nc(N3CCOCC3)ccc12 [XZ413] ?
> 333 µM

Also COc1ccc2c(O)c(C(=O)NCc3ccc(F)cc3F)c(=O)n(O)c2n1 [XZ405] ?
32 µM

Also O=C(NCc1ccc(F)cc1F)c1c(NC2CCCCCC2)c2cccnc2n(O)c1=O [XZ376] ?
13.1 µM

---

Entries and their measured EC50 follow.
system: HIV-1 constructs containing mutant IN Y143R; experiment: microbe, parasite or virus in culture; format: cell-based; conditions: Human immunodeficiency virus 1; Table 3; read-out: EC50 (nM, IN Mutants) Y143R
Your answer should be a plain number; it is taken to be in nM.

| smilesStr | result |
| --- | --- |
| CCOC(=O)[C@@H]1CCCN1c1c(C(=O)NCc2ccc(F)cc2F)c(=O)n(O)c2ncccc12 | 1660 |
| Nc1ccc(-c2ccc(Nc3c(C(=O)NCc4ccc(F)cc4F)c(=O)n(O)c4ncccc34)cc2)cc1 | 102 |
| O=C(NCc1ccc(F)c(F)c1)c1c(O)c2cccnc2n(O)c1=O | 44.5 |

Which EC50 reading was recorded for the compound CN(C)c1c(C(=O)NCc2ccc(F)cc2F)c(=O)n(O)c2ncccc12 ?
273

Also O=C(NCc1ccc(F)cc1F)c1c(Nc2ccccc2)c2cccnc2n(O)c1=O ?
24.9

Also O=C(NCc1ccc(F)cc1F)c1c(Nc2ccc(-c3ccccc3)cc2)c2cccnc2n(O)c1=O ?
361

Also O=C(NCc1ccc(F)c(Cl)c1)c1c(O)c2cccnc2n(O)c1=O ?
53.6

Also O=C(NCc1ccc(F)cc1F)c1c(Nc2ccc3c(c2)Cc2ccccc2-3)c2cccnc2n(O)c1=O ?
448

Also O=C(NCc1ccc(F)cc1F)c1c(N2CCOCC2)c2cccnc2n(O)c1=O ?
1800

---

Biological target: HIV-1 integrase (Human immunodeficiency virus type 1 group M subtype B, UniProt P12497)
Assay: biochemical
Assay type: biochemical
Details: Table 1; strand transfer; read-out: IC50 Values Strand transfer
Procedure: In Vitro Integrase Assay. Integrase reactions were carried out by adding drugs or an equivalent volume of 100% dimethyl sulfoxide (DMSO; used as the drug solvent) to a mixture of 20 nM DNA and 400 nM integrase in 50 mM morpholinepropanesulfonic acid (pH 7.2), 7.5 mM MgCl2, and 14 mM 2-mercaptoethanol. […]
Consider the cut-off 0.06 µM. If the recorded IC50 is strictly smaller, the label is True; if not, the label is False.

Record excerpt, results attached:
| compound | classAssignment |
| --- | --- |
| O=C(NCc1ccc(F)c(F)c1)c1cc2cccc(O)c2n(O)c1=O [XZ375] | False |
| O=C(NCc1ccc(F)c(Cl)c1)c1cc2cccnc2n(O)c1=O [XZ391] | True |
| O=C(NCc1ccc(F)cc1)c1c(O)c2cccnc2[nH]c1=O [XZ364] | False |
| COc1cccc2cc(C(=O)NCc3ccc(F)cc3F)c(=O)n(O)c12 [XZ370] | False |
| O=C(NCc1ccc(F)cc1F)c1cc2cccnc2n(O)c1=O [XZ390] | True |
| O=C(NCc1ccc(F)c(F)c1)c1c(O)c2cccnc2[nH]c1=O [XZ368] | False |

API: query returns whether the compound falls strictly under 0.06 µM in IC50. Query: O=C(NCc1ccc(F)c(F)c1)c1cc2cccnc2n(O)c1=O [XZ392]
True

Also O=C(NCc1ccc(F)cc1F)c1cc2cccc(O)c2n(O)c1=O [XZ369] ?
False

Also O=C(NCc1ccc(F)cc1)c1cc2cccnc2n(O)c1=O [XZ393] ?
True

Also O=C(NCc1ccc(F)cc1F)c1c(O)c2cccnc2n(O)c1=O [XZ351] ?
True

Also O=C(NCc1ccc(F)c(F)c1)c1c(O)c2cccnc2n(O)c1=O [XZ367] ?
True

---

test: in vitro; assay type: cell-based, human; settings: human, Table 5; 50% reduction in the level of ATP in HOS cells
Entries and their measured CC50 follow.
Remember to follow the number with its unit.

| smilesStr | result |
| --- | --- |
| COc1ccc2c(N)c(C(=O)NCc3ccc(F)cc3F)c(=O)n(O)c2n1 | 2.2 µM |
| COC(=O)CNc1c(C(=O)NCc2ccc(F)cc2F)c(=O)n(O)c2nc(OC)ccc12 | 11.7 µM |

Please examine the following record next.
Which CC50 reading was recorded for the compound COc1ccc2c(O)c(C(=O)NCc3ccc(F)cc3F)c(=O)n(O)c2n1 ?
12.1 µM

---

Entries and their measured CC50 follow.
test: in vitro; format: cell-based, human; conditions: human, Table 8; 50% reduction in the level of ATP in HOS cells

Illustrative cases are given below, each with its answer.
| smilesStr | metricName | result |
| --- | --- | --- |
| Nc1c(C(=O)NCc2ccc(F)cc2F)c(=O)n(O)c2ncc(CCCCCO)cc12 | CC50 | > 250 µM |
| COC(=O)CCc1cnc2c(c1)c(N)c(C(=O)NCc1ccc(F)cc1F)c(=O)n2O | CC50 | > 250 µM |
| COC(=O)CCc1cnc2c(c1)c(NCCO)c(C(=O)NCc1ccc(F)cc1F)c(=O)n2O | CC50 | > 250 µM |
| Nc1c(C(=O)NCc2ccc(F)cc2F)c(=O)n(O)c2ncc(CCS(=O)(=O)CCN3CCOCC3)cc12 | CC50 | > 250 µM |
| Nc1c(C(=O)NCc2ccc(F)cc2F)c(=O)n(O)c2ncc(-c3ccccc3)cc12 | CC50 | 184 µM |
| Nc1c(C(=O)NCc2ccc(F)cc2F)c(=O)n(O)c2ncc(CCCC3CCCCC3)cc12 | CC50 | 27.4 µM |

Which CC50 reading was recorded for the molecule CC(=O)OCCCc1cnc2c(c1)c(N)c(C(=O)NCc1ccc(F)cc1F)c(=O)n2O ?
> 250 µM

Also Nc1c(C(=O)NCc2ccc(F)cc2F)c(=O)n(O)c2ncc(CCCO)cc12 ?
> 250 µM

---

Entries and their measured log10(IC50) follow.
molecular target: HIV-1 integrase (Human immunodeficiency virus type 1 group M subtype B, UniProt P12497); test: biochemical; assay type: biochemical; details: Table 7; strand transfer; read-out: IC50 (μM) ST
In plain terms, each number is the log10 of measured IC50 in µM.

| smilesStr | log10(IC50) |
| --- | --- |
| Nc1c(C(=O)NCc2ccc(F)cc2F)c(=O)n(O)c2ncc(CCCCCCCCO)cc12 | -2.27 |
| Nc1c(C(=O)NCc2ccc(F)cc2F)c(=O)n(O)c2ncc(CCCCCCO)cc12 | -3.23 |
| COC(=O)CNc1c(C(=O)NCc2ccc(F)cc2F)c(=O)n(O)c2ncc(CCCCCO)cc12 | -2.43 |

Which log10(IC50) reading was recorded for the compound Nc1c(C(=O)NCc2ccc(F)cc2F)c(=O)n(O)c2ncc(-c3ccccc3)cc12 ?
-2.80

Also O=C(NCc1ccc(F)cc1F)c1c(O)c2cc(CCCCCO)cnc2n(O)c1=O ?
-1.91

Also Nc1c(C(=O)NCc2ccc(F)cc2F)c(=O)n(O)c2ncc(CCCOCCO)cc12 ?
-2.60

Also O=C(NCc1ccc(F)cc1F)c1c(NCCO)c2cc(CCCCCO)cnc2n(O)c1=O ?
-2.60

Also CN(C)CCCc1cnc2c(c1)c(N)c(C(=O)NCc1ccc(F)cc1F)c(=O)n2O ?
-1.84

Also COC(=O)CCc1cnc2c(c1)c(NCCO)c(C(=O)NCc1ccc(F)cc1F)c(=O)n2O ?
-2.51

Also Nc1c(C(=O)NCc2ccc(F)cc2F)c(=O)n(O)c2ncc(Br)cc12 ?
-2.49
